Conditions: 298.15 K, Maximal bubble pressure
MEASURED_PROPERTY: surface tension liquid-gas (mN/m)
Give the number; mN/m is assumed, so skip it.

Use the examples below as a reference point.
COMPOUND	READING
COC(C)=O [methyl ethanoate]	24.93
CCCC(=O)OC [methyl butanoate]	24.56
CCCCCCC(=O)OC [methyl heptanoate]	26.73
CCC(=O)OC [methyl propanoate]	24.61
CCCCC(=O)OC [methyl pentanoate]	25.34
CCCCCC(=O)OC [methyl hexanoate]	26.01

Let's switch to this compound now.
Reported surface tension liquid-gas ( COC=O [methyl methanoate] ) = 24.96

----------
Conditions: 278.15 K; 101.3 kPa; Liquid mixture 1; spinning drop method
MEASURED_PROPERTY: interfacial tension (mN/m)
Give the number; mN/m is assumed, so skip it.

COMPOUND	UNIT_ANNOTATION	READING
CCCCC(=O)OC [methyl pentanoate] + O	mN/m	13.6
CCCCCC(=O)OC [methyl hexanoate] + O	mN/m	14.6
CCCC(=O)OC [methyl butanoate] + O	mN/m	10.6
COC=O [methyl methanoate] + O	mN/m	0.56
CCC(=O)OC [methyl propanoate] + O	mN/m	7.02

Let's switch to this compound now.
Reported interfacial tension ( COC(C)=O [methyl ethanoate] + O ) = 1.86

----------
Settings: 318.15 K; 101.3 kPa; Liquid mixture 1; spinning drop method
Documented interfacial tension across a set of molecules
Give the number; mN/m is assumed, so skip it.

Use the examples below as a reference point.
MOLECULE	UNIT_ANNOTATION	interfacial tension
CCC(=O)OC [methyl propanoate] + O	mN/m	7.34
CCCCCCC(=O)OC [methyl heptanoate] + O	mN/m	17.5
COC(C)=O [methyl ethanoate] + O	mN/m	1.17
CCCCC(=O)OC [methyl pentanoate] + O	mN/m	13.9
CCCC(=O)OC [methyl butanoate] + O	mN/m	11

Let's switch to this molecule now.
Reported interfacial tension ( CCCCCC(=O)OC [methyl hexanoate] + O ) = 15.8

----------
Details: 288.15 K; 101.3 kPa; Liquid mixture 1; spinning drop method
Documented interfacial tension across a set of molecules
Give the number; mN/m is assumed, so skip it.

Use the examples below as a reference point.
MOLECULE	interfacial tension / mN/m
CCCC(=O)OC [methyl butanoate] + O	10.9
COC(C)=O [methyl ethanoate] + O	1.77
CCC(=O)OC [methyl propanoate] + O	7.55
CCCCC(=O)OC [methyl pentanoate] + O	14
CCCCCC(=O)OC [methyl hexanoate] + O	15

Reported interfacial tension ( COC=O [methyl methanoate] + O ) = 0.77

Reported interfacial tension ( CCCCCCC(=O)OC [methyl heptanoate] + O ) = 16

----------
Settings: 298.15 K; 101.33 kPa; Liquid; Vibrating tube method
Documented mass density across a set of compounds
Give the number; kg/m3 is assumed, so skip it.

Use the examples below as a reference point.
COMPOUND	UNIT_ANNOTATION	mass density
CCCCCCC(=O)OC [methyl heptanoate]	kg/m3	875.61
CCCCC(=O)OC [methyl pentanoate]	kg/m3	885.66
CCCC(=O)OC [methyl butanoate]	kg/m3	892.62
CCCCCC(=O)OC [methyl hexanoate]	kg/m3	879.76
COC(C)=O [methyl ethanoate]	kg/m3	926.9
COC=O [methyl methanoate]	kg/m3	960.85

Let's switch to this compound now.
Reported mass density ( CCC(=O)OC [methyl propanoate] ) = 909.3
